assay details: Therapeutic index, ratio of CC50 for human TZM-bl cells to EC50 for HIV IIIB infected in TZM-bl cells
Assay type: toxicity, cell-based
assay setup: read-out: Ratio CC50/EC50
Counter-ions that a name gives are not always drawn.
result type: selectivity ratio

Some compounds with recorded selectivity ratio:
[
  {
    "compound": "COc1ccc(OCC(=O)NCCOCCOCCNCC(=O)Nc2cccc3c2C(=O)N(C2CCC(=O)NC2=O)C3=O)cc1NC(=O)c1c(N)cccc1Sc1ccc([N+](=O)[O-])cc1 (centres undefined)",
    "measured": "> 3.77"
  },
  {
    "compound": "COc1ccc(O)cc1NC(=O)c1c(N)cccc1Sc1ccc([N+](=O)[O-])cc1",
    "measured": "> 33.5"
  },
  {
    "compound": "COc1ccc(OCC(=O)NCCOCCOCCNc2cccc3c2C(=O)N(C2CCC(=O)NC2=O)C3=O)cc1NC(=O)c1c(N)cccc1Sc1ccc([N+](=O)[O-])cc1 (centres undefined)",
    "measured": "> 6"
  },
  {
    "compound": "COc1ccc(OCC(=O)NCCCCCCCCCCNCC(=O)Nc2cccc3c2C(=O)N(C2CCC(=O)NC2=O)C3=O)cc1NC(=O)c1c(N)cccc1S(=O)(=O)c1ccc([N+](=O)[O-])cc1 (centres undefined)",
    "measured": "> 6.9"
  },
  {
    "compound": "COc1ccc(OCC(=O)NCCOCCOCCOCCNCC(=O)Nc2cccc3c2C(=O)N(C2CCC(=O)NC2=O)C3=O)cc1NC(=O)c1c(N)cccc1S(=O)(=O)c1ccc([N+](=O)[O-])cc1 (centres undefined)",
    "measured": "> 9.39"
  }
]

[Q] Requested read-out: selectivity ratio. Entry: CC(C)OC(=O)OCOP(=O)(CO[C@H](C)Cn1cnc2c(N)ncnc21)OCOC(=O)OC(C)C [TENOFOVIR DISOPROXIL FUMARATE]
[A] > 43800

[Q] Requested read-out: selectivity ratio. Entry: COc1ccc(OCC(=O)NCCCCNc2cccc3c2C(=O)N(C2CCC(=O)NC2=O)C3=O)cc1NC(=O)c1c(N)cccc1Sc1ccc([N+](=O)[O-])cc1 (centres undefined)
[A] > 5.76

[Q] Requested read-out: selectivity ratio. Entry: COc1ccc(O)cc1NC(=O)c1c(N)cccc1S(=O)(=O)c1ccc([N+](=O)[O-])cc1
[A] > 93.5

[Q] Requested read-out: selectivity ratio. Entry: COc1ccc(OCC(=O)NCCOCCOCCNCC(=O)Nc2cccc3c2C(=O)N(C2CCC(=O)NC2=O)C3=O)cc1NC(=O)c1c(N)cccc1S(=O)(=O)c1ccc([N+](=O)[O-])cc1 (centres undefined)
[A] > 2.99
